- PROCEDURE_DETAILS: Thin film autoxidation of arachidonic acid with compounds 16-19 (HPLC)
- ASSAY_CONDITIONS: ratio 1:1, no additive 7 day
Some compounds, each annotated with its measured Percentage of compound recovered (with arachidonic acid).
The reply should be a number in %, with the unit left off.

Here are 3 compounds together with their reported answers.
line_notation=CCCCC/C=C\C/C=C\C/C=C\CCCCCOCC(=O)O value_measured=27
line_notation=CCCCC/C=C\C/C=C\C/C=C\C/C=C\CCCCSCC(=O)O value_measured=28
line_notation=CCCCC/C=C\C/C=C\C/C=C\C/C=C\CCCCSCCC(=O)O value_measured=96

Now take the following compound into account.
# return recorded Percentage of compound recovered (with arachidonic acid) for entry CC/C=C\C/C=C\C/C=C\CCCCCCCCOCC(=O)O
41

====

- PROCEDURE_DETAILS: Petri-dish thin film autoxidation of arachidonic acid with thia fatty acids and sulfides (HPLC)
- ASSAY_CONDITIONS: ratio arachidonic acid:compound 1:1, 1 day
MEASUREMENT_TYPE: Compound (%) recovered following autoxidation with arachidonic acid
The reply should be a number in %, with the unit left off.

Here are 3 compounds together with their reported answers.
compound="CCCCC/C=C\\C/C=C\\C/C=C\\C/C=C\\CCCCSCC(=O)O [Compound 18]" display_unit=% value_measured=26
compound="CC/C=C\\C/C=C\\CCSCCC(=O)O [Compound 106]" display_unit=% value_measured=98
compound="CC/C=C\\C/C=C\\C/C=C\\CCCCCCCCSCCC(=O)O [Compound 112]" display_unit=% value_measured=100

# return recorded Compound (%) recovered following autoxidation with arachidonic acid for entry CCCCCCCCCCCCCCSCCC(=O)O [Compound 108]
99

# return recorded Compound (%) recovered following autoxidation with arachidonic acid for entry CCCCCCCCCCCCCCSCCC [Compound 111, propyltetradecyl sulfide]
101

# return recorded Compound (%) recovered following autoxidation with arachidonic acid for entry CCCCC/C=C\C/C=C\C/C=C\C/C=C\CCCCSCCC(=O)O [Compound 19]
99

# return recorded Compound (%) recovered following autoxidation with arachidonic acid for entry CCCCCCCCCCCCCCSCC(=O)O [Compound 109, 2-Tetradecylthioacetic acid]
50

====

- PROCEDURE_DETAILS: Petri-dish thin film autoxidation of arachidonic acid with thia fatty acids and sulfides (HPLC)
- ASSAY_CONDITIONS: ratio arachidonic acid:compound 10:1, 5 days
Some compounds, each annotated with its measured Arachidonic acid (%) recovered following autoxidation in the presence of the compound.
The reply should be a number in %, with the unit left off.

Here are 3 compounds together with their reported answers.
compound="CCCCC/C=C\\C/C=C\\C/C=C\\C/C=C\\CCCCSCCC(=O)O [Compound 19]" value_measured=42
compound="CCCCCCCCCCCCCCSCCC [Compound 111, propyltetradecyl sulfide]" value_measured=68
compound="CC/C=C\\C/C=C\\C/C=C\\CCCCCCCCSCCC(=O)O [Compound 112]" value_measured=4

# return recorded Arachidonic acid (%) recovered following autoxidation in the presence of the compound for entry CCCCC/C=C\C/C=C\C/C=C\C/C=C\CCCCSCCC [Compound 110]
24

# return recorded Arachidonic acid (%) recovered following autoxidation in the presence of the compound for entry CC/C=C\C/C=C\CCSCCC(=O)O [Compound 106]
79

====

- MEASURED_TARGET: 15-LO (Glycine max)
- Construct: purchased Sigma Chemical Company
- Sequence (P08170 whole entry): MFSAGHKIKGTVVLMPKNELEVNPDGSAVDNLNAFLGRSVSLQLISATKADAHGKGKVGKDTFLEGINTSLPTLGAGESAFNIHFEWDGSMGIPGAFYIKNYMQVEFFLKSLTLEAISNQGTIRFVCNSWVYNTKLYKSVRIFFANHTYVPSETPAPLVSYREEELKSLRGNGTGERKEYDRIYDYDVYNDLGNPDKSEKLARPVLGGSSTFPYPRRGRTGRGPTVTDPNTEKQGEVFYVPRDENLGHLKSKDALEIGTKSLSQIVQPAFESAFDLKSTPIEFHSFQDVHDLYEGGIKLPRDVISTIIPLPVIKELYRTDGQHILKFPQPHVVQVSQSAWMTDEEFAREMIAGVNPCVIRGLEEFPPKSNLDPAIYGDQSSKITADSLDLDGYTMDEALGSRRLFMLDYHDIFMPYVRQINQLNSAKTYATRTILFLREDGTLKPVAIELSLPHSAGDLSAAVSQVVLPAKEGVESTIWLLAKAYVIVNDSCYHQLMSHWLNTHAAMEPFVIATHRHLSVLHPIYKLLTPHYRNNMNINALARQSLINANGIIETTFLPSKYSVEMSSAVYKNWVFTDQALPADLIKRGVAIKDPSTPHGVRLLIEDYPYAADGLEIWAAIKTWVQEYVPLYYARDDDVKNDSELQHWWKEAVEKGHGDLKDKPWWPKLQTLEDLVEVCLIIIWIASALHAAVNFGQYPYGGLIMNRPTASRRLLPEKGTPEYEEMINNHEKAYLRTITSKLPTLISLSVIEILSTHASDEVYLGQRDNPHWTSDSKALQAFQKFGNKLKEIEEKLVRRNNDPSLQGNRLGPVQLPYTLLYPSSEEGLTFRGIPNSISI
- PROCEDURE_DETAILS: Effect on 15-LO catalysed oxidation of arachidonic acid
- Format: biochemical, soybean
- ASSAY_CONDITIONS: mixed inhibition pattern; read-out: Kl (second inhibitor constant; printed Ki in Table 3), 15-LO catalysed oxidation of arachidonic acid
MEASUREMENT_TYPE: Ki (µM)
The reply should be a number in µM, with the unit left off.

# return recorded Ki for entry CCCCCCCCCCCCCCCCCC(CCC(=O)O)(CCC(=O)O)[N+](=O)[O-] [Lx8]
55.2
